Reference source for all entries: ChEMBL document CHEMBL6087448

- System: Paclitaxel-resistant IGROV-1 cell
- Assay summary: Inhibition of STAT5 phosphorylation in human Paclitaxel-resistant IGROV-1 cells expressing ABCB1 at 10 uM incubated for 72 hrs by Western blotting based immunoassay
Calls of active or inactive are those of the source. No cut-off for these calls is given here.
// one of true for active, false for inactive, no free text

These solved cases illustrate the format of a correct answer.
I would be grateful if you could indicate the recorded call for CCCc1nc2c(C)cc(-c3nc4ccccc4n3C)cc2n1Cc1ccc(-c2ccccc2C(N)=O)cc1 .
true

Returns: the outcome recorded for CCCc1nc2ccccc2n1Cc1ccc(-c2cccc(C(N)=O)c2)cc1 in this assay.
true

Others:
Dear all, I need the recorded test outcome for CCCc1nc2ccccc2n1Cc1ccc(-c2ccc(C(N)=O)cc2)cc1 , thank you.
true

Called result for CCCc1nc2c(C)cc(-c3nc4ccccc4n3C)cc2n1Cc1ccc(-c2ccccc2C(=O)O)cc1
true

Kindly provide the recorded test outcome for the following compound: CCCc1nc2c(C)cc(-c3nc4ccccc4n3C)cc2n1Cc1ccc(-c2ccccc2C(=O)OC)cc1
false
